Molecular target: T1, recombinant human IL-23R/Fc chimera (R&D Systems) (human, UniProt Q5VWK5 24-353)
T1 construct: bought; also called human IL-23R/Fc fusion protein; rhIL23RFc
T1 sequence (looked up): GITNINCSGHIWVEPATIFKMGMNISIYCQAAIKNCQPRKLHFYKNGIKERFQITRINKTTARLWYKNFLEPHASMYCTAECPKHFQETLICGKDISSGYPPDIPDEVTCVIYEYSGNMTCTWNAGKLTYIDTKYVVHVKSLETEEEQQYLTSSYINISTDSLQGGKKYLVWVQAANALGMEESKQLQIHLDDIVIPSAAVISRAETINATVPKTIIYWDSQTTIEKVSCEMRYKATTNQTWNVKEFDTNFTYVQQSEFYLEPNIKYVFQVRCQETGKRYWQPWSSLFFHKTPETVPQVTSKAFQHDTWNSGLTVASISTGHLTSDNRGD
Assay: competition ELISA against IL-23
Definition: the class of an entry is the range in bucket 1 = under 2 ratio, bucket 2 = from 2 ratio up to 4 ratio, bucket 3 = 4 ratio and over that contains its Ratio IC50 to 056-53.H4E IC50.

Ask | # bin lookup: classify 105-08-1D3 ATRIMER (designed binder, not shown: C-terminal purification tag: Myc/His6 (pANA4) or HA-StrepII (pANA10)) EPPTQKPKKIVNAKKDVVNTKMFEELKSRLDTLAQEVALLKEQQALQTVCLKGTKVHMKCFLAFTQTKTFHEASEDCISRGGTLSTPQTGSENDALYEYLRQSVGNEAEIWLGLNGSKVTETWVDMTGARIAYKNWETEITAQPDGGFGYFGENCAVLSGAANGKWFDKRCRDQLPYICQFGIV by its Ratio IC50 to 056-53.H4E IC50
Reply | bucket 1

Ask | # iterate: 105-08-2G7 ATRIMER (designed binder, not shown: C-terminal tag: His/Myc (pANA4) or HA-StrepII (pANA10)) EPPTQKPKKIVNAKKDVVNTKMFEELKSRLDTLAQEVALLKEQQALQTVCLKGTKVHMKCFLAFTQTKTFHEASEDCISRGGTLSTPQTGSENDALYEYLRQSVGNEAEIWLGLNGSPKTGTWVDMTGARIAYKNWETEITAQPDGGFGYFGENCAVLSGAANGKWFDKRCRDQLPYICQFGIV
Reply | bucket 2

Ask | And then 105-08-1C4 ATRIMER (designed binder, Homotrimer of the given chain (ATRIMER complex).) EPPTQKPKKIVNAKKDVVNTKMFEELKSRLDTLAQEVALLKEQQALQTVCLKGTKVHMKCFLAFTQTKTFHEASEDCISRGGTLSTPQTGSENDALYEYLRQSVGNEAEIWLGLNGSTLTDTWVDMTGARIAYKNWETEITAQPDGGWGYFGENCAVLSGAANGKWFDKRCRDQLPYICQFGIV , what is it?
Reply | bucket 2

Ask | Try this binder next: 105-20-2F10 ATRIMER (designed binder, Forms a homotrimer (ATRIMER) through the tetranectin coiled coil; one protomer is given., not shown: C-terminal tag) EPPTQKPKKIVNAKKDVVNTKMFEELKSRLDTLAQEVALLKEQQALQTVCLKGTKVHMKCFLAFTQTKTFHEASEDCISRGGTLSTPQTGSENDALYEYLRQSVGNEAEIWLGLNGSARTDTWVDMTGARIAYKNWETEITAQPDGGFGYFGENCAVLSGAANGKWFDKRCRDQLPYICQFGIV
Reply | bucket 3

Ask | # iterate: 105-08-2H4 ATRIMER (designed binder) EPPTQKPKKIVNAKKDVVNTKMFEELKSRLDTLAQEVALLKEQQALQTVCLKGTKVHMKCFLAFTQTKTFHEASEDCISRGGTLSTPQTGSENDALYEYLRQSVGNEAEIWLGLNGSVRTDTWVDMTGARIAYKNWETEITAQPDGGFGYFGENCAVLSGAANGKWFDKRCRDQLPYICQFGIV
Reply | bucket 3

Ask | Try the binder 105-08-1A4 ATRIMER (designed binder) EPPTQKPKKIVNAKKDVVNTKMFEELKSRLDTLAQEVALLKEQQALQTVCLKGTKVHMKCFLAFTQTKTFHEASEDCISRGGTLSTPQTGSENDALYEYLRQSVGNEAEIWLGLNGSAVTNTWVDMTGARIAYKNWETEITAQPDGGFGYFGENCAVLSGAANGKWFDKRCRDQLPYICQFGIV
Reply | bucket 1

Ask | And the next one, 105-08-1D2 ATRIMER (designed binder, Forms a homotrimer (ATRIMER) through the tetranectin coiled coil; one protomer is given., not shown: C-terminal tag) EPPTQKPKKIVNAKKDVVNTKMFEELKSRLDTLAQEVALLKEQQALQTVCLKGTKVHMKCFLAFTQTKTFHEASEDCISRGGTLSTPQTGSENDALYEYLRQSVGNEAEIWLGLNGSPVTDTWVDMTGARIAYKNWETEITAQPDGGFGYFGENCAVLSGAANGKWFDKRCRDQLPYICQFGIV ?
Reply | bucket 3

Ask | What would you report for 105-59-3B5 ATRIMER (designed binder, not shown: C-terminal purification tag: Myc/His6 (pANA4) or HA-StrepII (pANA10)) EPPTQKPKKIVNAKKDVVNTKMFEELKSRLDTLAQEVALLKEQQALQTVCLKGTKVHMKCFLAFTQTKTFHEASEDCISRGGTLSTPQTGSENDALYEYLRQSVGNEAEIWLGLNGSPITDTWVDMTGARIAYKNWETEITAQPDGGFGVFGENCAVLSGAANGKWFDKRCRDQLPYICQFGIV ?
Reply | bucket 1

Ask | Can you handle 105-08-2G10 ATRIMER (designed binder) EPPTQKPKKIVNAKKDVVNTKMFEELKSRLDTLAQEVALLKEQQALQTVCLKGTKVHMKCFLAFTQTKTFHEASEDCISRGGTLSTPQTGSENDALYEYLRQSVGNEAEIWLGLNGSPLTDTWVDMTGARIAYKNWETEITAQPDGGFGYFGENCAVLSGAANGKWFDKRCRDQLPYICQFGIV next?
Reply | bucket 1

Ask | Entry 105-59-3A5 ATRIMER (designed binder, not shown: C-terminal tag: Myc/His6 (pANA4) or HA-StrepII (pANA10); A Ser left at the ompA junction may also sit at the N-terminus) EPPTQKPKKIVNAKKDVVNTKMFEELKSRLDTLAQEVALLKEQQALQTVCLKGTKVHMKCFLAFTQTKTFHEASEDCISRGGTLSTPQTGSENDALYEYLRQSVGNEAEIWLGLNGSLLTNTWVDMTGARIAYKNWETEITAQPDGGFGVFGENCAVLSGAANGKWFDKRCRDQLPYICQFGIV please
Reply | bucket 1

Ask | Further, for 105-08-1C11 ATRIMER (designed binder, not shown: C-terminal tag: His/Myc (pANA4) or HA-StrepII (pANA10)) EPPTQKPKKIVNAKKDVVNTKMFEELKSRLDTLAQEVALLKEQQALQTVCLKGTKVHMKCFLAFTQTKTFHEASEDCISRGGTLSTPQTGSENDALYEYLRQSVGNEAEIWLGLNGSSRTDTWVDMTGARIAYKNWETEITAQPDGGFGYFGENCAVLSGAANGKWFDKRCRDQLPYICQFGIV ?
Reply | bucket 2
